Kindly state pIC50 for each of the entries shown.
- Target or test system: KPC-2 (Klebsiella pneumoniae, UniProt Q9F663)
- Construct: made in house; host or cells: E. coli BL21(DE3)
- Sequence (Q9F663 25-293, looked up): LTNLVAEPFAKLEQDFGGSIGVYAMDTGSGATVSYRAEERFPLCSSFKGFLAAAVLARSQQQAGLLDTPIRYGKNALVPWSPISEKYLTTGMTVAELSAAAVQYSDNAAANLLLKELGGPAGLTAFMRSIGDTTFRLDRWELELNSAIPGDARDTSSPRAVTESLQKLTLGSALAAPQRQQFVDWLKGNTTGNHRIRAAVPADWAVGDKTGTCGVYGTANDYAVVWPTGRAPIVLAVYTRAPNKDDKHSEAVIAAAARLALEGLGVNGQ
- Measurement protocol: β-lactamase enzyme inhibition assay, KPC-2 (imipenem substrate)
- Type: biochemical
- Experimental context: Class A; imipenem substrate, 300 nm; read-out: KPC-2
pIC50: −log10 of the molar value.

# annotated cases, reported pIC50 shown
[[record]]
molecule = "NCCn1cnc(CC(=O)N[C@H]2Cc3cccc(C(=O)O)c3OB2O)n1"
measured_metric = "pIC50"
readout_value = "6.00 to 7.00"

[[record]]
molecule = "NCCn1cc(Cn2nnc(CC(=O)N[C@H]3Cc4cccc(C(=O)O)c4OB3O)n2)nn1"
measured_metric = "pIC50"
readout_value = "> 7.00"


I have 5 molecules here; please give me pIC50 for each one.
1. NCc1cc(-c2cn(CC(=O)N[C@H]3Cc4cccc(C(=O)O)c4OB3O)nn2)cs1
2. O=C(Cn1nnc(C(=O)O)c1C(=O)O)N[C@H]1Cc2cccc(C(=O)O)c2OB1O
3. N=C(N)NCC(O)Cc1cn(CC(=O)N[C@H]2Cc3cccc(C(=O)O)c3OB2O)nn1 (stereo partly shown)
4. CC(C)(C(=O)N[C@H]1Cc2cccc(C(=O)O)c2OB1O)n1cc(CNC(=N)N)nn1
5. O=C(Cn1cc(CO)nn1)N[C@H]1Cc2cccc(C(=O)O)c2OB1O

Response:
["> 7.00", "> 7.00", "> 7.00", "> 7.00", "> 7.00"]

For the 6 molecules below, give their pIC50 values.
1. Cc1nnn(CC(=O)N[C@H]2Cc3cccc(C(=O)O)c3OB2O)c1CN
2. Nc1cnn(CC(=O)N[C@H]2Cc3cccc(C(=O)O)c3OB2O)c1
3. O=C(Cn1cc(C2CCNC2)nn1)N[C@H]1Cc2cccc(C(=O)O)c2OB1O (stereo partly shown)
4. NCCn1nnnc1CC(=O)N[C@H]1Cc2cccc(C(=O)O)c2OB1O
5. NCCn1cnc(C(=O)N[C@H]2Cc3cccc(C(=O)O)c3OB2O)n1
6. Nc1ccc(-c2cn(CC(=O)N[C@H]3Cc4cccc(C(=O)O)c4OB3O)nn2)cn1

Response:
["> 7.00", "> 7.00", "6.00 to 7.00", "> 7.00", "6.00 to 7.00", "> 7.00"]

----------
- Target or test system: OXA-48 (UniProt Q6XEC0)
- Measurement protocol: β-lactamase enzyme inhibition assay, Class D oxacillinase
- Experimental context: read-out: OXA-48
Measured metric: IC50

Here's what some known entries look like.
[[record]]
smiles_repr = "CNCc1cn(CC(=O)N[C@H]2Cc3cccc(C(=O)O)c3OB2O)nn1"
measured_metric = "IC50"
readout_value = "100 to 1000 nM"

[[record]]
smiles_repr = "NCc1cn(C[C@H](N)C(=O)N[C@H]2Cc3cccc(C(=O)O)c3OB2O)nn1"
measured_metric = "IC50"
readout_value = "1000 to 10000 nM"

[[record]]
smiles_repr = "O=C(Cn1nnnc1CC(=O)N[C@H]1Cc2cccc(C(=O)O)c2OB1O)N[C@H]1CCNC1"
measured_metric = "IC50"
readout_value = "100 to 1000 nM"

[[record]]
smiles_repr = "O=C(Cc1cn2ccsc2n1)N[C@H]1Cc2cccc(C(=O)O)c2OB1O"
measured_metric = "IC50"
readout_value = "< 100 nM"

[[record]]
smiles_repr = "O=C(Cn1cc(-c2cccnc2)nn1)N[C@H]1Cc2cccc(C(=O)O)c2OB1O"
measured_metric = "IC50"
readout_value = "100 to 1000 nM"

[[record]]
smiles_repr = "O=C(Cc1nnnn1CCF)N[C@H]1Cc2cccc(C(=O)O)c2OB1O"
measured_metric = "IC50"
readout_value = "< 100 nM"

[[record]]
smiles_repr = "O=C(Cc1nnn(C2CNC2)n1)N[C@H]1Cc2cccc(C(=O)O)c2OB1O"
measured_metric = "IC50"
readout_value = "< 100 nM"

[[record]]
smiles_repr = "NCCc1cnnn1CC(=O)N[C@H]1Cc2cccc(C(=O)O)c2OB1O"
measured_metric = "IC50"
readout_value = "< 100 nM"


Let's switch to this compound now.
Query: Quick check: IC50 on OXA-48 (UniProt Q6XEC0), item `N=C(N)NCc1cn(CC(=O)N[C@H]2Cc3cccc(C(=O)O)c3OB2O)nn1` ?
Response: < 100 nM

----------
- Target or test system: UniProtKB P0A3M1
- Sequence (P0A3M1 22-286): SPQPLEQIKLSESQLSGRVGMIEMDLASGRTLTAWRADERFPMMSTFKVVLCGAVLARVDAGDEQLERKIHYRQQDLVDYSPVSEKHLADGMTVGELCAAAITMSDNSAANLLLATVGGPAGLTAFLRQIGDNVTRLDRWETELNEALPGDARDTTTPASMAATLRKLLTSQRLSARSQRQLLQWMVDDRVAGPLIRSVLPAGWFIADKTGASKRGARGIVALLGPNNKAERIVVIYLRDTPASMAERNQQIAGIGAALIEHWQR
- Measurement protocol: β-lactamase enzyme inhibition assay, SHV-5 (cefotaxime substrate)
pIC50: −log10 of the molar value.
Measured metric: pIC50

Sample records with pIC50:
[[record]]
compound = "NCc1nnc(CC(=O)N[C@H]2Cc3cccc(C(=O)O)c3OB2O)s1 [Example 67]"
readout_value = "> 7.00"

[[record]]
compound = "NCCS(=O)(=O)NCc1cn(CC(=O)N[C@H]2Cc3cccc(C(=O)O)c3OB2O)nn1 [Example 69]"
readout_value = "> 7.00"

[[record]]
compound = "NCCCC[C@@H](C(=O)N[C@H]1Cc2cccc(C(=O)O)c2OB1O)n1cc(CN)nn1 [Example 113]"
readout_value = "5.00 to 6.00"

[[record]]
compound = "N=C(N)NCCCn1nnnc1CC(=O)N[C@H]1Cc2cccc(C(=O)O)c2OB1O [Example 53]"
readout_value = "> 7.00"

[[record]]
compound = "CCOC(=O)c1nnn(CC(=O)N[C@H]2Cc3cccc(C(=O)O)c3OB2O)c1C(=O)OCC [Example 11]"
readout_value = "> 7.00"

[[record]]
compound = "N[C@H]1CCN(C(=O)c2cn(CC(=O)N[C@H]3Cc4cccc(C(=O)O)c4OB3O)nn2)C1 [Example 66]"
readout_value = "> 7.00"


Consider the following items and state reported pIC50 for each.
1. NCC(O)Cc1cn(CC(=O)N[C@H]2Cc3cccc(C(=O)O)c3OB2O)nn1 (stereo partly shown) [Example 92]
2. NCCn1ncnc1CC(=O)N[C@H]1Cc2cccc(C(=O)O)c2OB1O [Example 119]
3. Cc1nnn(CC(=O)N[C@H]2Cc3cccc(C(=O)O)c3OB2O)c1CN [Example 120]

Response:
["6.00 to 7.00", "> 7.00", "6.00 to 7.00"]

Parameters: items (list). Returns: pIC50 for each item.
1. NCc1nnc(CC(=O)N[C@H]2Cc3cccc(C(=O)O)c3OB2O)[nH]1 [Example 23]
2. NCCONC(=O)c1cn(CC(=O)N[C@H]2Cc3cccc(C(=O)O)c3OB2O)nn1 [Example 61]
3. Nc1ccc(S(=O)(=O)NCc2cn(CC(=O)N[C@H]3Cc4cccc(C(=O)O)c4OB3O)nn2)cc1 [Example 70]
4. C[Si](C)(C)c1cn(CC(=O)N[C@H]2Cc3cccc(C(=O)O)c3OB2O)nn1 [Example 9]
5. O=C(Cn1nnc(C(=O)O)c1C(=O)O)N[C@H]1Cc2cccc(C(=O)O)c2OB1O [Example 16]
6. Nc1nnc(CC(=O)N[C@H]2Cc3cccc(C(=O)O)c3OB2O)[nH]1 [Example 20]

Response:
1. > 7.00
2. > 7.00
3. > 7.00
4. > 7.00
5. > 7.00
6. > 7.00

Each of the following entries comes with a recorded value; kindly state pIC50 for each.
1. CC(C)(C(=O)N[C@H]1Cc2cccc(C(=O)O)c2OB1O)n1cc(CN)nn1 [Example 33]
2. O=C(Cc1nnnn1CC1CCNCC1)N[C@H]1Cc2cccc(C(=O)O)c2OB1O [Example 98]
3. O=C(Cn1cc(C(=O)N[C@@H]2CCNC2)nn1)N[C@H]1Cc2cccc(C(=O)O)c2OB1O [Example 84]
4. NCc1nnn(CC(=O)N[C@H]2Cc3cccc(C(=O)O)c3OB2O)c1Cl [Example 107]
5. O=C(Cn1cnnn1)N[C@H]1Cc2cccc(C(=O)O)c2OB1O [Example 97]
6. O=C(Cn1cc(-c2cccnc2)nn1)N[C@H]1Cc2cccc(C(=O)O)c2OB1O [Example 12]

Response:
> 7.00
> 7.00
6.00 to 7.00
6.00 to 7.00
> 7.00
> 7.00

----------
- Target or test system: VIM-2 (Escherichia coli, UniProt Q5U7L7)
- Construct: made in house; host or cells: E. coli BL21(DE3)
- Measurement protocol: β-lactamase enzyme inhibition assay, VIM-2 (nitrocefin substrate)
- Format: biochemical
- Experimental context: Class B; nitrocefin substrate, 486 nm; read-out: VIM-2
Provide the reported IC50 of each item.

Record excerpt, results attached:
[[record]]
smiles_repr = "N=CNCCn1nnnc1CC(=O)N[C@H]1Cc2cccc(C(=O)O)c2OB1O"
target_or_test_system = "VIM-2 (Escherichia coli, UniProt Q5U7L7)"
measured_metric = "IC50"
readout_value = "100 to 1000 nM"

[[record]]
smiles_repr = "NNC(=O)Cn1nnc(CC(=O)N[C@H]2Cc3cccc(C(=O)O)c3OB2O)n1"
target_or_test_system = "VIM-2 (Escherichia coli, UniProt Q5U7L7)"
measured_metric = "IC50"
readout_value = "100 to 1000 nM"

[[record]]
smiles_repr = "NCCSCc1cn(CC(=O)N[C@H]2Cc3cccc(C(=O)O)c3OB2O)nn1"
target_or_test_system = "VIM-2 (Escherichia coli, UniProt Q5U7L7)"
measured_metric = "IC50"
readout_value = "100 to 1000 nM"

[[record]]
smiles_repr = "N=C(N)NCCn1nnc(CC(=O)N[C@H]2Cc3cccc(C(=O)O)c3OB2O)n1"
target_or_test_system = "VIM-2 (Escherichia coli, UniProt Q5U7L7)"
measured_metric = "IC50"
readout_value = "< 100 nM"


List reported IC50 for each of these molecules:
1. NCCCC[C@@H](C(=O)N[C@H]1Cc2cccc(C(=O)O)c2OB1O)n1cc(CN)nn1
2. O=C(Cn1cncn1)N[C@H]1Cc2cccc(C(=O)O)c2OB1O
3. O=C(Cn1ccc(B(O)O)n1)N[C@H]1Cc2cccc(C(=O)O)c2OB1O
4. O=C(Cn1nnc(CC(=O)N[C@H]2Cc3cccc(C(=O)O)c3OB2O)n1)N[C@H]1CCNC1
5. O=C(Cn1cc(C(=O)NC2CCNCC2)nn1)N[C@H]1Cc2cccc(C(=O)O)c2OB1O
6. NCc1cn(CC(=O)N[C@H]2Cc3cccc(C(=O)O)c3OB2O)nn1

Response:
1. < 100 nM
2. 100 to 1000 nM
3. 1000 to 10000 nM
4. < 100 nM
5. < 100 nM
6. < 100 nM

Give IC50 for each listed item.
1. NCC#Cc1c(CN)nnn1CC(=O)N[C@H]1Cc2cccc(C(=O)O)c2OB1O
2. CC(C)NCCn1nnnc1CC(=O)N[C@H]1Cc2cccc(C(=O)O)c2OB1O
3. O=C(Cc1nnnn1CC1CCNCC1)N[C@H]1Cc2cccc(C(=O)O)c2OB1O
4. NCCn1nnc(CC(=O)N[C@H]2Cc3cccc(C(=O)O)c3OB2O)n1

Response:
["< 100 nM", "< 100 nM", "< 100 nM", "< 100 nM"]

State the recorded IC50 for every item in the following list.
1. N=C(N)NCc1cn(CC(=O)N[C@H]2Cc3cccc(C(=O)O)c3OB2O)nn1
2. N=C(N)NCc1nc(CC(=O)N[C@H]2Cc3cccc(C(=O)O)c3OB2O)cs1
3. NCCCc1c(CN)nnn1CC(=O)N[C@H]1Cc2cccc(C(=O)O)c2OB1O

Response:
["< 100 nM", "100 to 1000 nM", "< 100 nM"]
